These entries and their values trace back to patent US20260049134A1.

Biological target: T1, DCC
T1 construct: coated protein in the ELISA; also called DCC-His (R&D Systems)
T1 chain: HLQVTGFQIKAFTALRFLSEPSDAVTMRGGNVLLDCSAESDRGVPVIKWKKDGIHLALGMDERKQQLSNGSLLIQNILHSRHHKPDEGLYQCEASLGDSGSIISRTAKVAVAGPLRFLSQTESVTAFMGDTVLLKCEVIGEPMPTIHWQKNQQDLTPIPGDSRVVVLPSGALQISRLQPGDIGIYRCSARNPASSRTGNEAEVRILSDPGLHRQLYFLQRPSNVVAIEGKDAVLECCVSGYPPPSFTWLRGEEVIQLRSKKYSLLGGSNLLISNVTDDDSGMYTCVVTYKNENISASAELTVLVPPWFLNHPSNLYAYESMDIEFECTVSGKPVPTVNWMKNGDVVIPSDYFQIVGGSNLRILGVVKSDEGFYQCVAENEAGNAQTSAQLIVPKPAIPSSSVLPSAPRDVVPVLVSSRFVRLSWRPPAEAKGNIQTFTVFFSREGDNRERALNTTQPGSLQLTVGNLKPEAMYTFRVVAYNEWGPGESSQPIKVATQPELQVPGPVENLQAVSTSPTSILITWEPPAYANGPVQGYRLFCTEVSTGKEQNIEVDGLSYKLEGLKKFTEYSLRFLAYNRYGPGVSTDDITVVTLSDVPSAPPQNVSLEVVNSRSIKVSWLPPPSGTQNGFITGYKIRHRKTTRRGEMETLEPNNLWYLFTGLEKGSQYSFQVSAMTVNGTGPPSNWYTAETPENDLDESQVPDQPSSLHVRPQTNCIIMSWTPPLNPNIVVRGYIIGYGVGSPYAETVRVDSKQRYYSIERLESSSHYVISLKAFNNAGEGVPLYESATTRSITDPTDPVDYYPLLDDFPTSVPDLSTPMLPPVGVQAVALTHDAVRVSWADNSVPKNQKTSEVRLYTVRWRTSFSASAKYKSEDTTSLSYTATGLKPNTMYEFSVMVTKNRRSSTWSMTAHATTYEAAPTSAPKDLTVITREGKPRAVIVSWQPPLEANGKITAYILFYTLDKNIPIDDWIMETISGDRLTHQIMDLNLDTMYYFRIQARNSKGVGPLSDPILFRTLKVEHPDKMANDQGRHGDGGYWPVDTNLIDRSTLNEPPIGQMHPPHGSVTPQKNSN
Test: ELISA on coated DCC-His, 150 ng IgG1; None 0.095
QUANTITY KIND: ELISA Absorbance (405 nm-570 nm)

[[record]]
binder = "HW-17 chimeric rabbit-human IgG1 LA/LA/PG (antibody, V domains shown, Fc-silenced (L234A/L235A/P329G) IgG1, lambda; Alexa Fluor 647-labeled in single-step flow cytometry; Cluster C-1) VH: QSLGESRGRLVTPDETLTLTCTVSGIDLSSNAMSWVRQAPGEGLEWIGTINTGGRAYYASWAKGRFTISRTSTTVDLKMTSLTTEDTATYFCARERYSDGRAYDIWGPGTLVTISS VL: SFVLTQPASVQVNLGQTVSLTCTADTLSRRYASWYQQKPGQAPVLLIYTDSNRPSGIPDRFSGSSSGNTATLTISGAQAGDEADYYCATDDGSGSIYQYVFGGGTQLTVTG"
quantity_kind = "ELISA Absorbance (405 nm-570 nm)"
recorded_measurement = 0.077


(Q) Please report the recorded ELISA Absorbance (405 nm-570 nm) for HW-81 chimeric rabbit-human IgG1 LA/LA/PG (antibody, V domains shown, Fc-silenced (L234A/L235A/P329G) IgG1, lambda; Alexa Fluor 647-labeled in single-step flow cytometry; Cluster C-45) VH: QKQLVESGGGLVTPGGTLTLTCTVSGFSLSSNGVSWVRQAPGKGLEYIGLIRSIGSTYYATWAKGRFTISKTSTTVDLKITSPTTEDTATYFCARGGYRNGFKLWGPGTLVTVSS VL: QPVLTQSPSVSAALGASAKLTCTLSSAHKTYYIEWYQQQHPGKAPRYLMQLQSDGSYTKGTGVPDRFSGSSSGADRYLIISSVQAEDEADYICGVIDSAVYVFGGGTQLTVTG .
(A) 0.068

(Q) Return reported ELISA Absorbance (405 nm-570 nm); argument: HW-16 chimeric rabbit-human IgG1 LA/LA/PG (antibody, V domains shown, Fc-silenced (L234A/L235A/P329G) IgG1, kappa; Alexa Fluor 647-labeled in single-step flow cytometry; Cluster C-45) VH: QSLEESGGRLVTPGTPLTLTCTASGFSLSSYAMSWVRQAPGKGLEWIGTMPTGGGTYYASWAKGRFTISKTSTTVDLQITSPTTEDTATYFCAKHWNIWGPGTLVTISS VL: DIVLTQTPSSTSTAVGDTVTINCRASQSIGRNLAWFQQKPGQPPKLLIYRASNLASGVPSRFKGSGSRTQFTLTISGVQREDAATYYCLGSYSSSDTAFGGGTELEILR
(A) 0.129
